Measured values drawn from the supplement of paper PMC9170038 for this set.

A collection of sequences and their measured apparent KD of MS2 coat protein
Tested on: MS2 coat protein
Assay: apparent KD of MS2 coat protein, switch ON state; designed switch direction (-1 OFF switch, 1 ON switch): 1; higher = weaker reporter binding
Conditions: FMN input: 0 or 200 uM; Eterna round: R93 (includes R88 designs)
Please reply with the bare figure in nM and do not write the unit itself.

// known answers, use as guide
AAUAAUUAUACGAAGGAUAUCGGUAAUUAGACAUGAGGAUCACCCAUGUAAUAAGGUUAAAUAAACGAGAAGGUCGAGGGUGAAA [JR_SS002_Sub501]    66.9
AAAAUACAUGAGGAUCACCCAUGUGAGAAAAACGCAGGAUAUGCCCGUUGAAAAAGGCGGGCAGAAGGGUGCCGAA [SameState1-III]    69.8
GUCCAACAUGAGGAUCACCCAUGUGCAUGACACUGAGGAUAUGGGACUAAAGGUGCUGGACCAGAAGGCAGAAGAA [Diatquorbi]    48.3
GAAAAACAUGAGGAUCACCCAUGUAGAAAUAUGGGAGGAUAUACAAAGACGAAAGUCAAAGUAGAAGGCCUAUAAG [Starry Same State 1.5 (mat747 round 1 mod)]    17.7

Now let's try a different one.
Memo: AAAAAACAUGAGGAUCACCCAUGUCGAAAGACGUGAGGAUAUGUACAGACUUCGGUCUGUACAGAAGGCACGUCAA [SS1 - 1044] , reported apparent KD of MS2 coat protein: 17.3

###

Measured apparent KD of MS2 coat protein of individual entries
Tested on: MS2 coat protein
Experiment: apparent KD of MS2 coat protein; designed switch direction (-1 OFF switch, 1 ON switch): -1; higher = weaker reporter binding
Details: input ligand: none
# output: bare number, implied unit nM

Some sequences with recorded apparent KD of MS2 coat protein:
AAGGUACGAGGAUAUACAUAGAUACAGACACAUGUGCAUGUACAUGAGGAUCACCCAUGUAGAAGGCGUAUAUA [AJ 18] (Eterna round: R96, puzzle: Exclusion 2)    51.8
CGCAUGUGAGGAUAUUAGUAGUAGUCAGAAAAGACUAUUACUGAGAAGGUACAUGAGGAUCACCCAUGUAUCCG [Mat - Exclusion 4 - Eli Mod - D46] (Eterna round: R97, puzzle: Exclusion 4)    13.9
AGAUGCUCAAGUCGACAUGAGGAUCACCCAUGUACAGUUAAUGAGGAUAUCCGAGAUAAAUAAUAGGAGAAGGUAUGAUCAUGA [Ex NG3 #5] (Eterna round: R96, puzzle: Exclusion NG 3)    59.5
AGUUGGGCAGGAUAUACAUGAGGAUCACCCAUGUGAGAAAUACUAGUGAGGUCGAUUAGUAGAAGGGCCUGACA [Mat - Exclusion 3 - Eli Mod - D30] (Eterna round: R97, puzzle: Exclusion 3)    31.2
GGGCCCGGAGGAUAUACAUGAGGAUCACCCAUGUAUUUGGGCCCUAUUGGGCCCGGGUGUAGAAGGCCGGGCCC [-42.1, -39.5 kcal, A 19%, 5abis,0] (Eterna round: R97, puzzle: Exclusion 3)    14.6

Entry GGUAGAGUGGCAGGAUAUCCGUCUGUUUCAGUCGGAGAAGGGCCACAGUCACUGGGUCCAAAUAUGGGUGACCAUGUAUCUACC [pwkr exNG1 F6.4] (Eterna round: R96, puzzle: Exclusion NG 1) , apparent KD of MS2 coat protein reported as 34.8

Kindly note the recorded apparent KD of MS2 coat protein for AGUGGGUCAGGAUAUUCUAUUAAUUACAUGAGGAUCACCCAUGUGAAUGGACAAGGGUGUGAAGAAGGGACUUGCG [Omei Ex5 A17d] (Eterna round: R97, puzzle: Exclusion 5) , which is 546

The recorded apparent KD of MS2 coat protein for CCAACUAAUUAGGAUAUUAAGGACAUCAGUAAGUAAGAAGGGAUUACAUGAGGAUCACCCAUGUGGUCCUCGGG [Eternabot (L2) Solution 57] (Eterna round: R97, puzzle: Exclusion 6) is 147

###

System: MS2 coat protein
Assay: apparent KD of MS2 coat protein, switch OFF state (with FMN for OFF switches, without FMN for ON switches); designed switch direction (-1 OFF switch, 1 ON switch): 1; higher = weaker reporter binding
Conditions: FMN input: 0 or 200 uM; Eterna round: R93 (includes R88 designs)
Measured apparent KD of MS2 coat protein of individual entries
Response body: numeric value in nM, unit text excluded.

// below: answered sequences
UAGAGACAUGAGGAUCACCCAUGUAGGAUUAUGGGAGGAUAUACAAAGACGAGAGUCAGAGUAGAAGGCCUAGGAA [salish99-ss1-133(!)]    74.6
AAAGACAUGGUGUAGGAUAUAUUAAUAGUCACAUGAGGAUCACCCAUGUUCAGAUAUCUGAACGAGUAGAAGGACGAUGAAAAAA [SameState2 Malc#4]    130
GAAAAACAUGAGGAUCACCCAUGUAAAAAUAUGGGAGGAUAUACAAAGACGAAAGUCAAAGUAGAAGGCCUAAAAG [77%, Mat - Mod of Eli, 3]    59.7

Reported apparent KD of MS2 coat protein ( AGAAAACAUGAGGAUCACCCAUGUAGAAAUAUGGGAGGAUAUACGAAGACGAAAGUCAAAGUAGAAGGCCUAAAGA [Mat - Same State 1 - Eli mod - D101] ) = 77.6

###

Tested on: MS2 coat protein
Test: apparent KD of MS2 coat protein; higher = weaker reporter binding
Details: Eterna round: R107; input ligand: arginine 13.2 mM
property_label: apparent KD of MS2 coat protein (µM)
Give the value, in units of µM, as a plain number.

Examples with answers:
GCAUCCUAGUCGGCCGCCACUGCAACAUGAGGAUCACCCAUGUCAGGCCUCAUGUGUCCUGGUAGCAGGACCGGGACUAGGAUGC [(T1)-(M1)-(M2)-(T)''-(M)'-(T)'-(T2)_Design4_2/18/17]    0.034
GGUUACUCUACGGCCGCCACUGAUUAAUUAUAAACCUGUACAUAAACAUGAGGAUCACCCAUGUACAGGACCGGGUAGUGUAACC [Tryptophan B 9]    0.0305
AUGUACAUGACGGCCGCCACUACACUGAAAGUGGUCCAGAACAUGAGGAUCACCCAUGUAUCAAGUAGGACCGGGUCAUGUACAU [Tryp B Ex t5]    0.178
ACUUGGUGGUGAUCCCUGCCAAGAGGUGAUACCAGCAUCGAAAGAUGCCCUUGGCAGCACCAACAUGAGGAUCACCCAUGUAAUA [(MT)''-(M)'-(T')-(Theo)-(Ms2)_Design1/22_6]    0.0626
ACACAUGAGGAUCACCCAUGUCCAAUAGAUACCAGUGAUACGGUGCACCCUUGGCAGCUGUUGCUGAGUGAUGGUUCCCUCGGAA [Same State Theophylline A GF4]    0.0486
AUACACCUCGUCCAGGCAAUCUUUAGUGAUACCAGCUAACUCCGUGGCCCUUGGCAGCACAUGAGGAUCACCCAUGUGCGACAUC [Bioninen]    0.0102

Reported apparent KD of MS2 coat protein ( AAAUAAAUCACAUGAGGAUCACCCAUGGAUACCAGGCCUGGAAACAGCCCUUGGCAGCCACAUGAGGAUCACCCAUGUGCUAAUA [MAT - Exclusion Theophlline A - Mod of Eli - D1] ) = 0.0898

Per the record, UUUGCACAUGAGGAUCACCCAUGUACAGAUACCAGCCUCAUCUACGGCCCUUGGCAGCUGAGAUAAUGGUGACGUGAUGGGCUUU [Edaniser] has apparent KD of MS2 coat protein of 0.0135

###

Tested on: MS2 coat protein
Test: apparent KD of MS2 coat protein, switch ON state; designed switch direction (-1 OFF switch, 1 ON switch): 1; higher = weaker reporter binding
Details: FMN input: 0 or 200 uM; Eterna round: R93 (includes R88 designs)
property_label: apparent KD of MS2 coat protein (nM)
Expressed in nM, but write only the number.

GGAAAACAUGAGGAUCACCCAUGUUAGUGUCAUUAAGGAUAUGGGCUUAAGAAUUUGAGACUAGAAGGUGAUGCGC [Soisla]    21.8
AGAGUAAACAGAGAGGAUAUCCAAUAGAAAACAUGAGGAUCACCCAUGUGAAAGAUAAUAAAAUGGGAGAAGGCUCACAAUAAGA [Topaz 43]    24.6
GGGAGACAUGAGGAUCACCCAUGUGAGAAGAGGCGAGGAUAUCGAAAGAAAGAAGAGAAACGAGAAGGCGCGAGAU [salish99-SS1-053]    30.3
AGAAAACAUGAGGAUCACCCAUGUAGAAAUAUGGGAGGAUAUACGAAGACGAAAGUCAAAGUAGAAGGCCUAAAGA [Mat - Same State 1 - Eli mod - D101]    23.6

Would you kindly look at the next entry?
Summary for this sequence, UCCACCAUGGUACAGGAUAUGUCAGACCCGACAUGAGGAUCACCCAUGUGCGGUUCUUUUCCAACGCAGAAGGGUGCAUAGGUGG [Xevetia] : apparent KD of MS2 coat protein is 17.1
